All values here come from ChEMBL document CHEMBL4387754.

experiment: Plasma concentration in ICR mouse at 10 mg/kg administered intratracheally measured after 1 min by RP-HPLC analysis; format: ADME, organism-based; conditions: inhaled or intranasal
READOUT KIND: concentration at 1 min (ng/mL)
Give the number; ng/mL is assumed, so skip it.

What measured concentration at 1 min goes with "C[N+]1(C)[C@@H]2C[C@@H](OC(=O)C(O)(c3cccs3)c3cccs3)C[C@H]1[C@@H]1O[C@@H]12.[Br-]" ? 3000

====

assay: Plasma concentration in ICR mouse at 7.5 mg/kg, iv measured after 1 min by RP-HPLC analysis; assay type: ADME, organism-based
READOUT KIND: concentration at 1 min (ng/mL)
Give the number; ng/mL is assumed, so skip it.

What measured concentration at 1 min goes with "C[N+]1(C)[C@@H]2C[C@@H](OC(=O)C(O)(c3cccs3)c3cccs3)C[C@H]1[C@@H]1O[C@@H]12.[Br-]" ? 40000
